System: rat pituitary cells
experiment description: In-vitro GH release assay using rat pituitary cells (rGH measured by SPA)
Format: cell-based
condition context: GH secretion from cultured male rat anterior pituitary cells, 15 min stimulation
Where a SMILES comes first, the peptide text is derived from it. [ ]: non-standard residue; d: D form. d1Nal = N[C@H](Cc1cccc2ccccc12)C(=O)O; d2Nal = N[C@H](Cc1ccc2ccccc2c1)C(=O)O; Aib = CC(C)(N)C(=O)O
Kindly state Emax (% of GHRP-6) for each of the entries shown.

Example cases with answers are listed next.
C[C@H](N)C(=O)N[C@@H](Cc1ccccc1)C(=O)N[C@H](Cc1ccc2ccccc2c1)C(=O)N[C@H](Cc1ccccc1)C(=O)N[C@@H](CCCCN)C(N)=O [Example 10, H--Ala--Phe--D-2Nal-D--Phe--Lys--NH2] (H-AF[d2Nal][dF]K-NH2) :: 90 % of GHRP-6
CC(C)(N)C(=O)N[C@@H](Cc1ccccc1)C(=O)N[C@H](Cc1ccc2ccccc2c1)C(=O)N[C@H](Cc1ccccc1)C(=O)N[C@@H](CCCCN)C(N)=O [Example 83, H--Aib--Phe--D-2Nal-D--Phe--Lys--NH2] (H-[Aib]F[d2Nal][dF]K-NH2) :: 75 % of GHRP-6
C[C@H](N)C(=O)N[C@@H](Cc1c[nH]cn1)C(=O)N[C@H](Cc1cccc2ccccc12)C(=O)N[C@H](Cc1ccccc1)C(=O)N[C@@H](CCCCN)C(N)=O [Example 51, H--Ala--His--D-1Nal-D--Phe--Lys--NH2] (H-AH[d1Nal][dF]K-NH2) :: 85 % of GHRP-6

Give the measured Emax (% of GHRP-6) of C[C@H](NC(=O)[C@@H](Cc1ccccc1)NC(=O)[C@@H](Cc1ccc2ccccc2c1)NC(=O)[C@H](Cc1c[nH]cn1)NC(=O)C(C)(C)N)C(N)=O [Example 88, H--Aib--His--D-2Nal-D--Phe--Ala--NH2] (H-[Aib]H[d2Nal][dF]A-NH2) . 80 % of GHRP-6
